# test-parameters: 343.15 K; 101.33 kPa; Liquid; Falling or rolling sphere viscometry

{"compound": "CC/C=C\\C/C=C\\C/C=C\\CCCCCCCC(=O)OC [methyl (Z,Z,Z)-9,12,15-octadecatrienoate]", "result-units": "mPa·s", "viscosity": 1.596}
{"compound": "CCCCCCCCCCCCCC(=O)OC [methyl tetradecanoate]", "result-units": "mPa·s", "viscosity": 1.521}
{"compound": "CCCCCCCCCCCCCCCC(=O)OC [methyl hexadecanoate]", "result-units": "mPa·s", "viscosity": 1.946}
{"compound": "CCCCCCCC/C=C\\CCCCCCCC(=O)OC [methyl cis-9-octadecenoate]", "result-units": "mPa·s", "viscosity": 2.054}
{"compound": "CCCCCCCCCCCC(=O)OC [methyl dodecanoate]", "result-units": "mPa·s", "viscosity": 1.173}
{"compound": "CCCCC/C=C\\C/C=C\\CCCCCCCC(=O)OC [methyl (Z,Z)-9,12-octadecadienate]", "result-units": "mPa·s", "viscosity": 1.755}

---

# test-parameters: 293.15 K; 101.33 kPa; Liquid; Falling or rolling sphere viscometry
Field 'label' (enum: Fulfilled / Not fulfilled). Set to Fulfilled when viscosity is strictly under 4 mPa·s; else Not fulfilled.

{"molecule": "CCCCCCCC/C=C\\CCCCCCCC(=O)OC [methyl cis-9-octadecenoate]", "discrete-label": "Not fulfilled"}
{"molecule": "CCCCC/C=C\\C/C=C\\CCCCCCCC(=O)OC [methyl (Z,Z)-9,12-octadecadienate]", "discrete-label": "Not fulfilled"}
{"molecule": "CCCCCCCCCCCC(=O)OC [methyl dodecanoate]", "discrete-label": "Fulfilled"}
{"molecule": "CCCCCCCCCCCCCC(=O)OC [methyl tetradecanoate]", "discrete-label": "Not fulfilled"}

---

# test-parameters: 303.15 K; 101.33 kPa; Liquid; Falling or rolling sphere viscometry
Listed here are compounds together with their documented viscosity.
measurement-kind: viscosity (mPa·s)

{"compound": "CCCCC/C=C\\C/C=C\\CCCCCCCC(=O)OC [methyl (Z,Z)-9,12-octadecadienate]", "result-units": "mPa·s", "numeric-result": 3.822}
{"compound": "CCCCCCCCCCCCCC(=O)OC [methyl tetradecanoate]", "result-units": "mPa·s", "numeric-result": 3.496}
{"compound": "CC/C=C\\C/C=C\\C/C=C\\CCCCCCCC(=O)OC [methyl (Z,Z,Z)-9,12,15-octadecatrienoate]", "result-units": "mPa·s", "numeric-result": 3.301}
{"compound": "CCCCCCCC/C=C\\CCCCCCCC(=O)OC [methyl cis-9-octadecenoate]", "result-units": "mPa·s", "numeric-result": 4.922}
{"compound": "CCCCCCCCCCCC(=O)OC [methyl dodecanoate]", "result-units": "mPa·s", "numeric-result": 2.475}

---

# test-parameters: 323.15 K; 101.33 kPa; Liquid; Falling or rolling sphere viscometry
Where viscosity equals or exceeds 2 mPa·s, the correct label is Met; where it does not, the label is Not met.

{"compound": "CC/C=C\\C/C=C\\C/C=C\\CCCCCCCC(=O)OC [methyl (Z,Z,Z)-9,12,15-octadecatrienoate]", "discrete-label": "Met"}
{"compound": "CCCCC/C=C\\C/C=C\\CCCCCCCC(=O)OC [methyl (Z,Z)-9,12-octadecadienate]", "discrete-label": "Met"}
{"compound": "CCCCCCCCCCCCCCCC(=O)OC [methyl hexadecanoate]", "discrete-label": "Met"}
{"compound": "CCCCCCCCCCCCCC(=O)OC [methyl tetradecanoate]", "discrete-label": "Met"}
{"compound": "CCCCCCCC/C=C\\CCCCCCCC(=O)OC [methyl cis-9-octadecenoate]", "discrete-label": "Met"}
{"compound": "CCCCCCCCCCCC(=O)OC [methyl dodecanoate]", "discrete-label": "Not met"}

---

# test-parameters: 313.15 K; 101.33 kPa; Liquid; Falling or rolling sphere viscometry
Listed here are compounds together with their documented viscosity.

{"compound": "CCCCC/C=C\\C/C=C\\CCCCCCCC(=O)OC [methyl (Z,Z)-9,12-octadecadienate]", "viscosity [mPa·s]": 3.166}
{"compound": "CC/C=C\\C/C=C\\C/C=C\\CCCCCCCC(=O)OC [methyl (Z,Z,Z)-9,12,15-octadecatrienoate]", "viscosity [mPa·s]": 2.79}
{"compound": "CCCCCCCC/C=C\\CCCCCCCC(=O)OC [methyl cis-9-octadecenoate]", "viscosity [mPa·s]": 3.939}
{"compound": "CCCCCCCCCCCC(=O)OC [methyl dodecanoate]", "viscosity [mPa·s]": 2.044}
{"compound": "CCCCCCCCCCCCCC(=O)OC [methyl tetradecanoate]", "viscosity [mPa·s]": 2.841}
{"compound": "CCCCCCCCCCCCCCCC(=O)OC [methyl hexadecanoate]", "viscosity [mPa·s]": 3.764}
